The following compounds are listed with their measured pKi values.
Assayed Target: vanilloid receptor 1 (VR1/TRPV1) of the rat species (Rattus norvegicus, UniProt O35433)
Construct: The spinal column is removed from decapitated rats; from tissue; host or cells: primary cells dissociated from rat dorsal root ganglia
Sequence (O35433 whole entry): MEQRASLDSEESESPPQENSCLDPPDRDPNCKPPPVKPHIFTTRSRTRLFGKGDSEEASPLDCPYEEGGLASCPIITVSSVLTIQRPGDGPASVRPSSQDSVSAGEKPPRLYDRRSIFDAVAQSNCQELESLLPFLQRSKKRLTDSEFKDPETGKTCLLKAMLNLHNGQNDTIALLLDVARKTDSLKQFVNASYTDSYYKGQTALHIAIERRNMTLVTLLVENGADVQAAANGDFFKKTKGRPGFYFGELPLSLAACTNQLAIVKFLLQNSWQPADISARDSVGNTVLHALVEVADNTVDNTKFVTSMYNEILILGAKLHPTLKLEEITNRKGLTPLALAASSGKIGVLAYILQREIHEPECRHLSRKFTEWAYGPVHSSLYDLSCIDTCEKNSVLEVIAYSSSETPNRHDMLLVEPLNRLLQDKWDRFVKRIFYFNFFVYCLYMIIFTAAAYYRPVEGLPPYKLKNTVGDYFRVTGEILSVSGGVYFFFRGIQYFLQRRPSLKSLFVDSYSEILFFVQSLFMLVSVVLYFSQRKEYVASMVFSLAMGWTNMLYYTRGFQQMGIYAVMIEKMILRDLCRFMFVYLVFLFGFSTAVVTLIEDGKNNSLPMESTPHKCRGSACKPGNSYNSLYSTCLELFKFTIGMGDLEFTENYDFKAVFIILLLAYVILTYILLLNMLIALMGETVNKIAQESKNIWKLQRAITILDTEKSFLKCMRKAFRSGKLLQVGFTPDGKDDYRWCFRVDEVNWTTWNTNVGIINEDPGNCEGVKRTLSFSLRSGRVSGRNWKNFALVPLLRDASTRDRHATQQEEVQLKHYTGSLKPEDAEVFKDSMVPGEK
Assay Info: FLIPR Ca2+ influx assay on rat dorsal root ganglia cells (pharmacological method I)
Type: cell-based
Measurement Conditions: table 4; capsaicin; read-out: Ki (rat) Cap.
Procedure: I. Functional Investigation of the Vanilloid Receptor 1 (VR1/TRPV1 Receptor) The agonistic or antagonistic action of the substances to be investigated on the vanilloid receptor 1 (VR1/TRPV1) of the rat species may be determined by the following assay. […] The DRGs are in each case repeatedly suspended, drawn by means of a syringe through no. […] The resultant pellet is in each case resuspended in 250 μL of complete medium and the cell count determined. […]
As a rule, pKi stands for the negative log10 of the concentration, concentration in M.

Below are worked cases with known answers.
CCCCSc1nc(C(F)(F)F)ccc1CNC(=O)C(C)c1ccc(NS(C)(=O)=O)c(F)c1 (stereo not shown) :: 9.22
CC(C(=O)NCc1ccc(C(F)(F)F)nc1N1CCN(c2ncccc2Cl)CC1)c1ccc(NS(C)(=O)=O)c(F)c1 (stereo not shown) :: 8.49
CC1CC(C)CN(c2nc(C(F)(F)Cl)ccc2CNC(=O)C(C)c2ccc(NS(C)(=O)=O)c(F)c2)C1 (stereo not shown) :: 9.30
CC(C(=O)NCc1ccc(C(F)(F)Cl)nc1OCc1cccnc1)c1ccc(NS(C)(=O)=O)c(F)c1 (stereo not shown) :: 8.25
CCCN(CCC)c1nc(C(F)(F)F)ccc1CNC(=O)C(C)c1ccc(NS(C)(=O)=O)c(F)c1 (stereo not shown) :: 9.10

Request: Which pKi is reported with vanilloid receptor 1 (VR1/TRPV1) of the rat species (Rattus norvegicus, UniProt O35433) for this entry: CC(C(=O)NCc1ccc(C(F)(F)F)cc1F)c1ccc(NS(C)(=O)=O)c(F)c1 (stereo not shown) ?
Result: 7.55

Request: Please provide the recorded pKi for CC(C(=O)NCc1ccc(C(F)(F)F)nc1NC1CCCCC1)c1ccc(NS(C)(=O)=O)c(F)c1 (stereo not shown) , tested on vanilloid receptor 1 (VR1/TRPV1) of the rat species (Rattus norvegicus, UniProt O35433).
Result: 7.33

Just for reference, patent US8710233B2 is where these values come from.
